Molecular target: hMC4R (Homo sapiens, UniProt P32245)
Construct: expressed in transfected cells; host or cells: HEK293T
Sequence (P32245 whole entry): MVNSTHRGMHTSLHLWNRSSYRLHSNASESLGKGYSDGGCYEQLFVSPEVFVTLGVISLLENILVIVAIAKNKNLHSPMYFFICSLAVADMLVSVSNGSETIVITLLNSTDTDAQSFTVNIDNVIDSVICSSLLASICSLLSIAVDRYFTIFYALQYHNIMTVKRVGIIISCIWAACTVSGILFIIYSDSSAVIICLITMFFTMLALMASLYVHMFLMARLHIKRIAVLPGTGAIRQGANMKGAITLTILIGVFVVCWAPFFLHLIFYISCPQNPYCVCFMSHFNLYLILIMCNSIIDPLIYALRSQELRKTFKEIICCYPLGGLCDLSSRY
Assay: Ligand-binding assay (displacement of 125I-NDP-MSH), hMC4R
Details: hMC4R; displacement of 125I-NDP-MSH; transiently transfected HEK293T cells, 48 h after transfection; mean ± SEM of at least three independent experiments; read-out: IC50
observation_type: pIC50
Please keep in mind that pIC50 is minus log10 of the molar concentration; only the number is needed.

Quick one: give measured pIC50 for CC(=O)N[C@H](Cc1ccc2ccccc2c1)C(=O)N[C@@H](CCCNC(=N)N)C(=O)N[C@@H](Cc1ccc2ccccc2c1)C(N)=O [MCL0020, Ac-D-2-Nal-Arg-2-Nal-NH2] 7.21
